target: Neutrophil elastase (Homo sapiens, UniProt P08246); assay: Inhibition of human leukocyte elastase
# pIC50 listing for each entry below
Expect pIC50 as a plain number equal to -log10 of the molar concentration.

A selection of reference data follows.
{"molecule": "CC(=O)OCC1=C(C(=O)OC(c2ccccc2)c2ccccc2)N2C(=O)C(=C=CBr)C2SC1 (configuration not stated)", "pIC50": 5.27}
{"molecule": "[2H]C(=C=C1C(=O)N2C(C(=O)OC(c3ccccc3)c3ccccc3)=C(COC(C)=O)CS(=O)(=O)C12)C(C)(C)C (configuration not stated)", "pIC50": 4.87}
{"molecule": "CC(=O)OCC1=C(C(=O)OC(c2ccccc2)c2ccccc2)N2C(=O)[C@H](Cl)C2SC1 (some centres not stated)", "pIC50": 5.22}
{"molecule": "CC(=O)OCC1=C(C(=O)OC(c2ccccc2)c2ccccc2)N2C(=O)/C(=C\\Br)C2S(=O)(=O)C1 (configuration not stated)", "pIC50": 5.47}
{"molecule": "CC(=O)OCC1=C(C(=O)OC(c2ccccc2)c2ccccc2)N2C(=O)/C(=C/C(=O)OC(C)(C)C)C2S(=O)(=O)C1 (configuration not stated)", "pIC50": 5.15}

Specify pIC50 for CC(=O)OCC1=C(C(=O)OC(c2ccccc2)c2ccccc2)N2C(=O)[C@H](I)C2SC1 (some centres not stated) , system Neutrophil elastase (Homo sapiens, UniProt P08246).
5.93

Specify pIC50 for CO[C@H]1C(=O)N2C(C(=O)OC(c3ccccc3)c3ccccc3)=C(COC(C)=O)CSC12 (some centres not stated) , system Neutrophil elastase (Homo sapiens, UniProt P08246).
5.27

Specify pIC50 for CC(=O)OCC1=C(C(=O)OC(c2ccccc2)c2ccccc2)N2C(=O)C(=C(Cl)Cl)C2SC1 (configuration not stated) , system Neutrophil elastase (Homo sapiens, UniProt P08246).
5.19

----------
Target: Neutrophil elastase (Homo sapiens)
Sequence (P08246 whole entry): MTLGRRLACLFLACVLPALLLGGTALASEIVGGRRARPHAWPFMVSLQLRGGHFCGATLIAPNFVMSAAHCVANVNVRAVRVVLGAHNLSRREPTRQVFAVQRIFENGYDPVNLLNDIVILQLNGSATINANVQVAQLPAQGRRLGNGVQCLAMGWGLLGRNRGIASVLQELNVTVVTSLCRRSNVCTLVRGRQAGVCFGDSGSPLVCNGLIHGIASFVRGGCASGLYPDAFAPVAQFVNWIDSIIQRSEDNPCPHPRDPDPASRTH
Assay: Inhibition of human leukocyte elastase
# IC50 listing for each entry below
# number only, unit µM dropped from output

{"compound": "CC(=O)/C=C1/C(=O)N2C(C(=O)OC(c3ccccc3)c3ccccc3)=C(COC(C)=O)CSC12 (centres undefined)", "target or test system": "Neutrophil elastase (Homo sapiens)", "unit spec": "µM", "IC50": 4.27}
{"compound": "CC(=O)OCC1=C(C(=O)OC(c2ccccc2)c2ccccc2)N2C(=O)/C(=C/c3ccccc3)C2S(=O)(=O)C1 (centres undefined)", "target or test system": "Neutrophil elastase (Homo sapiens)", "unit spec": "µM", "IC50": 8.9}

Now look at this entry.
Give reported IC50 value for CC(=O)OCC1=C(C(=O)OC(c2ccccc2)c2ccccc2)N2C(=O)/C(=C/C=O)C2SC1 (centres undefined)
13.9

----------
Biological target: Neutrophil elastase (Homo sapiens, UniProt P08246)
Sequence (P08246 whole entry): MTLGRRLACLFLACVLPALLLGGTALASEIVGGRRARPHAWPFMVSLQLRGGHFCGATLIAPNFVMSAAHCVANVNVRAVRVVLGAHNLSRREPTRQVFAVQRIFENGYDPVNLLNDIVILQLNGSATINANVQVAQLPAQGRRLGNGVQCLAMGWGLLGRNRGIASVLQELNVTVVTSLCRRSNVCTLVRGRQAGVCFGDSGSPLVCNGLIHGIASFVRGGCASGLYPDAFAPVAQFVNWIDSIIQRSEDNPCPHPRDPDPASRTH
Experiment: Inhibition of human leukocyte elastase
measured quantity: IC50

A selection of reference data follows.
{"molecule": "CC(=O)OCC1=C(C(=O)OC(c2ccccc2)c2ccccc2)N2C(=O)C(=C=CC(C)(C)C)C2S(=O)(=O)C1 (stereo not given)", "IC50": "10.5 µM"}
{"molecule": "CC(=O)/C=C1/C(=O)N2C(C(=O)OC(c3ccccc3)c3ccccc3)=C(COC(C)=O)CS(=O)(=O)C12 (stereo not given)", "IC50": "> 10 µM"}

Specify IC50 for CC(=O)OCC1=C(C(=O)OC(c2ccccc2)c2ccccc2)N2C(=O)C(=C(Br)Br)C2SC1 (stereo not given) , system Neutrophil elastase (Homo sapiens, UniProt P08246).
0.26 µM

Specify IC50 for CC(=O)OCC1=C(C(=O)OC(c2ccccc2)c2ccccc2)N2C(=O)[C@@H](N)C2SC1 (stereo not given in full) , system Neutrophil elastase (Homo sapiens, UniProt P08246).
> 10 µM

Specify IC50 for CC(=O)OCC1=C(C(=O)OC(c2ccccc2)c2ccccc2)N2C(=O)/C(=C\c3ccccc3)C2S(=O)(=O)C1 (stereo not given) , system Neutrophil elastase (Homo sapiens, UniProt P08246).
6 µM

----------
Target: Neutrophil elastase (Homo sapiens)
Sequence (P08246 whole entry): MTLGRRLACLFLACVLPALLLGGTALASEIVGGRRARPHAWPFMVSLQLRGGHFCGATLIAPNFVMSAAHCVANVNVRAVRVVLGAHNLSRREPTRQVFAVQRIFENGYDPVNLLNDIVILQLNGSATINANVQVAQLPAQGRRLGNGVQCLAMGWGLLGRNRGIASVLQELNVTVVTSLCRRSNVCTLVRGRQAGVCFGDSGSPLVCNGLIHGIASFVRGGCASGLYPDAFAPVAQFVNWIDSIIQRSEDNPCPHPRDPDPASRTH
Assay: Inhibition of human leukocyte elastase
# pIC50 listing for each entry below
Expect pIC50 as a plain number equal to -log10 of the molar concentration.

Specify pIC50 for C=C=C1C(=O)N2C(C(=O)OC(c3ccccc3)c3ccccc3)=C(COC(C)=O)CS(=O)(=O)C12 (stereo not drawn) , system Neutrophil elastase (Homo sapiens).
5.21

Specify pIC50 for CC(=O)OCC1=C(C(=O)OC(c2ccccc2)c2ccccc2)N2C(=O)/C(=C\Br)C2SC1 (stereo not drawn) , system Neutrophil elastase (Homo sapiens).
6.41

Specify pIC50 for C=C=C1C(=O)N2C(C(=O)OC(c3ccccc3)c3ccccc3)=C(COC(C)=O)CSC12 (stereo not drawn) , system Neutrophil elastase (Homo sapiens).
5.05

Specify pIC50 for COC(=O)/C=C1/C(=O)N2C(C(=O)OC(c3ccccc3)c3ccccc3)=C(COC(C)=O)CS(=O)(=O)C12 (stereo not drawn) , system Neutrophil elastase (Homo sapiens).
5.05

Specify pIC50 for CC(=O)OCC1=C(C(=O)OC(c2ccccc2)c2ccccc2)N2C(=O)/C(=C/C#N)C2S(=O)(=O)C1 (stereo not drawn) , system Neutrophil elastase (Homo sapiens).
6.31

Specify pIC50 for CC(=O)OCC1=C(C(=O)OC(c2ccccc2)c2ccccc2)N2C(=O)C(=C(Br)Br)C2S(=O)(=O)C1 (stereo not drawn) , system Neutrophil elastase (Homo sapiens).
5.68

Specify pIC50 for COC(=O)/C(Br)=C1/C(=O)N2C(C(=O)OC(c3ccccc3)c3ccccc3)=C(COC(C)=O)CSC12 (stereo not drawn) , system Neutrophil elastase (Homo sapiens).
6.68

----------
biological target: Neutrophil elastase (Homo sapiens); test: Inhibition of human leukocyte elastase
measured quantity: IC50 (nM)
# number only, unit nM dropped from output

{"compound": "CC(=O)OCC1=C(C(=O)OC(c2ccccc2)c2ccccc2)N2C(=O)C(Br)(Br)C2SC1 (centres undefined)", "IC50 (nM)": 1390}

Give reported IC50 value for COC(=O)/C=C1/C(=O)N2C(C(=O)OC(c3ccccc3)c3ccccc3)=C(COC(C)=O)CSC12 (centres undefined)
2600

Give reported IC50 value for CO[C@H]1C(=O)N2C(C(=O)OC(c3ccccc3)c3ccccc3)=C(COC(C)=O)CS(=O)(=O)C12 (some centres undefined)
280

Give reported IC50 value for CC(=O)OCC1=C(C(=O)OC(c2ccccc2)c2ccccc2)N2C(=O)C(=C(Cl)Cl)C2S(=O)(=O)C1 (centres undefined)
2560
